Biological target: CD3ε homodimer protein (human, UniProt P07766 23-126, limits assumed)
Sequence (P07766 23-126 limits assumed): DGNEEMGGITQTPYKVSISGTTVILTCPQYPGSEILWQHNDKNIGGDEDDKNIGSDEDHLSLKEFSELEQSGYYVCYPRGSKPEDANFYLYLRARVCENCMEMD
Experiment: SPR, immobilized CD3ε homodimer;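 further: biacore T200 surface plasmon resonance at 25 °C, antibody variants flowed as analytes over amine-coupled CD3ε homodimer on a CM4 chip, variant binding amount divided by that of GLS3000 antibody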
Reported ratio of amounts bound (vs GLS3000) values for the following binders.
OUTCOME MEASURE: ratio of amounts bound (vs GLS3000)

>>> assay_value("GLS3000 P95L (antibody, name in Kabat numbering, V domains shown, one-arm format as m2) VH: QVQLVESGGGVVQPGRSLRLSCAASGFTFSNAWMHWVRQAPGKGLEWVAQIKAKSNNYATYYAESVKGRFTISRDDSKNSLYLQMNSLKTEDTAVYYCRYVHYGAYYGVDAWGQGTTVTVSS VL: DIVMTQSPLSLPVTPGEPASISCRSSQSLVHSNRNTYLHWYQQKPGQAPRLLIYKVSNRFSGVPDRFSGSGSGTDFTLKISRVEAEDVGVYYCGQGTQVLYTFGQGTKLEIK")
0.24
>>> assay_value("GLS3000 R29T (antibody, name in Kabat numbering, V domains shown, one-arm format as m2) VH: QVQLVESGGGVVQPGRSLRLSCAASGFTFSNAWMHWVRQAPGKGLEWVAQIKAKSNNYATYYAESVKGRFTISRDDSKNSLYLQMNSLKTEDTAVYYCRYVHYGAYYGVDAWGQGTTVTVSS VL: DIVMTQSPLSLPVTPGEPASISCRSSQSLVHSNTNTYLHWYQQKPGQAPRLLIYKVSNRFSGVPDRFSGSGSGTDFTLKISRVEAEDVGVYYCGQGTQVPYTFGQGTKLEIK")
0.63
>>> assay_value("GLS3000 N30F (antibody, name in Kabat numbering, V domains shown, one-arm format as m2) VH: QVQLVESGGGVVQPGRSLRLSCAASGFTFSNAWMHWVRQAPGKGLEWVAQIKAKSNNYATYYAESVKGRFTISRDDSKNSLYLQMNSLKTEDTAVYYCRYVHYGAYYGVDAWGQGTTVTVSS VL: DIVMTQSPLSLPVTPGEPASISCRSSQSLVHSNRFTYLHWYQQKPGQAPRLLIYKVSNRFSGVPDRFSGSGSGTDFTLKISRVEAEDVGVYYCGQGTQVPYTFGQGTKLEIK")
1.1
